Entries annotated with measured polymerase ribozyme fitness (log ratio)
B1: TPR t1 (parent)
chain: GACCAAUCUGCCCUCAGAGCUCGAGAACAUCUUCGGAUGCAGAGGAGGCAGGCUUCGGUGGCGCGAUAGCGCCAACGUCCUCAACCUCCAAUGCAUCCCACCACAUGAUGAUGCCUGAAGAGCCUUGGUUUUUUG

- Variants of: B1
- Measurement Protocol: polymerase ribozyme fitness, log enrichment relative to wild type (log ratio); higher = more active; in vitro selection for triplet polymerase activity
Test Readout: polymerase ribozyme fitness (log ratio)

| Mutant Designation | Assay Value |
| --- | --- |
| G57U C94G U112G | -4.47 |
| G61U C79A | -0.952 |
| C15A G36A C72U U116A G120U | -4.34 |
| G25U C72U G110U C114U | -6.32 |
| A6U C13U C62U U132A | -0.793 |
| U38A G45U G57U | -2.52 |
| A37G G39C | -2.69 |
| C22U C114A | -4.76 |
| G52A U55C C56A G57C | 0.195 |
| C22G G110C C123G | -5.98 |
| C22G C64U U112G | -2.89 |
| C3U C11U A37U C53U | -0.631 |
| G25U G36U | -6.39 |
| G69U | 0.48 |
| U59G C70U C101A | -2.5 |
| A103G G113A | -4.15 |
| C12A G23A C82G | -7.42 |
| A95G U109C | -5.61 |
